# assay remarks: Growth inhibition of human OVCAR4 cells at 10 uM after 48 hrs
# Type: functional
# measurement setup: OVCAR-4, 48 h, read-out: GI

line notation: COc1ccc(/C=C2\CCCc3c2nc(N)nc3-c2ccc(OC)c(OC)c2)cc1OC
inhibition of growth at 10 µM: 46.7%
--
line notation: Nc1nc2c(c(-c3ccc(Br)cc3)n1)CCC/C2=C\c1ccc(Br)cc1
inhibition of growth at 10 µM: < 30%
--
line notation: COc1ccc(/C=C2\CCCc3c2nc(C)nc3-c2ccc(OC)cc2)cc1
inhibition of growth at 10 µM: < 30%
--
line notation: COc1ccc(/C=C2\CCCC3=C(c4ccc(OC)cc4)Nc4ccccc4N=C32)cc1
inhibition of growth at 10 µM: < 30%
--
line notation: Cc1nc2c(c(-c3ccc(Cl)cc3)n1)CCC/C2=C\c1ccc(Cl)cc1
inhibition of growth at 10 µM: < 30%
--
line notation: COc1ccc(/C=C2\CCCc3c2nc(N)nc3-c2ccc(OC)cc2)cc1
inhibition of growth at 10 µM: < 30%
--
line notation: COc1cc(/C=C2\CCCc3c2nc(C)nc3-c2cc(OC)c(OC)c(OC)c2)cc(OC)c1OC
inhibition of growth at 10 µM: 57.8%
--
line notation: Nc1nc2c(c(-c3ccc(Cl)cc3)n1)CCC/C2=C\c1ccc(Cl)cc1
inhibition of growth at 10 µM: < 30%
--
line notation: Clc1ccc(/C=C2\CCCC3=C(c4ccc(Cl)cc4)Nc4ccccc4N=C32)cc1
inhibition of growth at 10 µM: < 30%
--
line notation: COc1cc(/C=C2\CCCc3c2nc(N)nc3-c2cc(OC)c(OC)c(OC)c2)cc(OC)c1OC
inhibition of growth at 10 µM: 73.1%

---

# Tested on: IGROV-1
# assay remarks: Growth inhibition of human IGROV1 cells at 10 uM after 48 hrs
# Format: functional
# measurement setup: IGROV-1, 48 h, read-out: GI

line notation: COc1ccc(/C=C2\CCCc3c2nc(N)nc3-c2ccc(OC)c(OC)c2)cc1OC
target or test system: IGROV-1
sign: =
inhibition of growth at 10 µM [%]: 42.9

line notation: Clc1ccc(/C=C2\CCCC3=C(c4ccc(Cl)cc4)Nc4ccccc4N=C32)cc1
target or test system: IGROV-1
sign: <
inhibition of growth at 10 µM [%]: 30

line notation: COc1cc(/C=C2\CCCc3c2nc(C)nc3-c2cc(OC)c(OC)c(OC)c2)cc(OC)c1OC
target or test system: IGROV-1
sign: =
inhibition of growth at 10 µM [%]: 69.3

line notation: Cc1nc2c(c(-c3ccc(Br)cc3)n1)CCC/C2=C\c1ccc(Br)cc1
target or test system: IGROV-1
sign: <
inhibition of growth at 10 µM [%]: 30

line notation: COc1ccc(/C=C2\CCCc3c2nc(C)nc3-c2ccc(OC)cc2)cc1
target or test system: IGROV-1
sign: <
inhibition of growth at 10 µM [%]: 30

---

# assay remarks: Growth inhibition of human NCI-ADR-RES cells at 10 uM after 48 hrs
# Type: functional
# measurement setup: read-out: GI

line notation: COc1ccc(/C=C2\CCCc3c2nc(N)nc3-c2ccc(OC)c(OC)c2)cc1OC
inhibition of growth at 10 µM: 74.9%
--
line notation: COc1cc(/C=C2\CCCC3=C(c4cc(OC)c(OC)c(OC)c4)Nc4ccccc4N=C32)cc(OC)c1OC
inhibition of growth at 10 µM: 94.1%
--
line notation: COc1cc(/C=C2\CCCc3c2nc(N)nc3-c2cc(OC)c(OC)c(OC)c2)cc(OC)c1OC
inhibition of growth at 10 µM: 96.1%
--
line notation: Nc1nc2c(c(-c3ccc(Br)cc3)n1)CCC/C2=C\c1ccc(Br)cc1
inhibition of growth at 10 µM: < 30%
--
line notation: COc1ccc(/C=C2\CCCC3=C(c4ccc(OC)cc4)Nc4ccccc4N=C32)cc1
inhibition of growth at 10 µM: < 30%
--
line notation: Clc1ccc(/C=C2\CCCC3=C(c4ccc(Cl)cc4)Nc4ccccc4N=C32)cc1
inhibition of growth at 10 µM: < 30%
--
line notation: Nc1nc2c(c(-c3ccc(Cl)cc3)n1)CCC/C2=C\c1ccc(Cl)cc1
inhibition of growth at 10 µM: < 30%
--
line notation: COc1ccc(/C=C2\CCCc3c2nc(C)nc3-c2ccc(OC)cc2)cc1
inhibition of growth at 10 µM: < 30%
--
line notation: COc1cc(/C=C2\CCCc3c2nc(C)nc3-c2cc(OC)c(OC)c(OC)c2)cc(OC)c1OC
inhibition of growth at 10 µM: 85.6%
--
line notation: COc1ccc(/C=C2\CCCc3c2nc(C)nc3-c2ccc(OC)c(OC)c2)cc1OC
inhibition of growth at 10 µM: 88.8%
--
line notation: Cc1nc2c(c(-c3ccc(Cl)cc3)n1)CCC/C2=C\c1ccc(Cl)cc1
inhibition of growth at 10 µM: < 30%
--
line notation: Cc1nc2c(c(-c3ccc(Br)cc3)n1)CCC/C2=C\c1ccc(Br)cc1
inhibition of growth at 10 µM: < 30%
--
line notation: COc1ccc(/C=C2\CCCc3c2nc(N)nc3-c2ccc(OC)cc2)cc1
inhibition of growth at 10 µM: < 30%

---

# assay remarks: Growth inhibition of human OVCAR4 cells at 10 uM after 48 hrs
# Format: functional
# measurement setup: OVCAR-4, 48 h, read-out: GI
Listed below: inhibition of growth at 10 µM values for each entry.
reported metric: inhibition of growth at 10 µM (%)

line notation: COc1cc(/C=C2\CCCC3=C(c4cc(OC)c(OC)c(OC)c4)Nc4ccccc4N=C32)cc(OC)c1OC
reported metric: inhibition of growth at 10 µM
uom: %
sign: =
reported result: 66.5
//
line notation: Cc1nc2c(c(-c3ccc(Br)cc3)n1)CCC/C2=C\c1ccc(Br)cc1
reported metric: inhibition of growth at 10 µM
uom: %
sign: <
reported result: 30
//
line notation: COc1ccc(/C=C2\CCCc3c2nc(C)nc3-c2ccc(OC)c(OC)c2)cc1OC
reported metric: inhibition of growth at 10 µM
uom: %
sign: =
reported result: 79.1

---

# Test system: HCT-116
# assay remarks: Growth inhibition of human HCT116 cells at 10 uM after 48 hrs
# Type: functional
# measurement setup: HCT-116, 48 h, read-out: GI
reported metric: inhibition of growth at 10 µM

line notation: COc1ccc(/C=C2\CCCc3c2nc(N)nc3-c2ccc(OC)c(OC)c2)cc1OC
reported result: 92.1%

line notation: COc1ccc(/C=C2\CCCc3c2nc(C)nc3-c2ccc(OC)cc2)cc1
reported result: < 30%

line notation: Cc1nc2c(c(-c3ccc(Br)cc3)n1)CCC/C2=C\c1ccc(Br)cc1
reported result: 55.8%

line notation: COc1ccc(/C=C2\CCCC3=C(c4ccc(OC)cc4)Nc4ccccc4N=C32)cc1
reported result: 61.9%

line notation: COc1ccc(/C=C2\CCCc3c2nc(N)nc3-c2ccc(OC)cc2)cc1
reported result: < 30%

---

# assay remarks: Cytotoxicity against human CNS cancer cells at 10 uM after 48 hrs
# Assay type: functional
# measurement setup: Cancer cell lines

line notation: Clc1ccc(/C=C2\CCCC3=C(c4ccc(Cl)cc4)Nc4ccccc4N=C32)cc1
sign: =
TGI (µM): 52.4

line notation: COc1cc(/C=C2\CCCC3=C(c4cc(OC)c(OC)c(OC)c4)Nc4ccccc4N=C32)cc(OC)c1OC
sign: =
TGI (µM): 94.3

line notation: Nc1nc2c(c(-c3ccc(Cl)cc3)n1)CCC/C2=C\c1ccc(Cl)cc1
sign: =
TGI (µM): 53.1

line notation: COc1cc(/C=C2\CCCc3c2nc(C)nc3-c2cc(OC)c(OC)c(OC)c2)cc(OC)c1OC
sign: >
TGI (µM): 100

line notation: O=c1[nH]cc(F)c(=O)[nH]1
sign: >
TGI (µM): 100

line notation: COc1ccc(/C=C2\CCCc3c2nc(N)nc3-c2ccc(OC)c(OC)c2)cc1OC
sign: =
TGI (µM): 85.7

line notation: COc1ccc(/C=C2\CCCc3c2nc(C)nc3-c2ccc(OC)c(OC)c2)cc1OC
sign: >
TGI (µM): 100

line notation: COc1cc(/C=C2\CCCc3c2nc(N)nc3-c2cc(OC)c(OC)c(OC)c2)cc(OC)c1OC
sign: >
TGI (µM): 100

---

# Test system: MDA-MB-231
# assay remarks: Growth inhibition of human MDA-MB-231 cells at 10 uM after 48 hrs
# Type: functional
# measurement setup: MDA-MB-231, 48 h, read-out: GI
reported metric: inhibition of growth at 10 µM

line notation: COc1ccc(/C=C2\CCCc3c2nc(N)nc3-c2ccc(OC)cc2)cc1
reported metric: inhibition of growth at 10 µM
reported result: < 30%
//
line notation: COc1cc(/C=C2\CCCc3c2nc(N)nc3-c2cc(OC)c(OC)c(OC)c2)cc(OC)c1OC
reported metric: inhibition of growth at 10 µM
reported result: 71.1%
//
line notation: COc1cc(/C=C2\CCCC3=C(c4cc(OC)c(OC)c(OC)c4)Nc4ccccc4N=C32)cc(OC)c1OC
reported metric: inhibition of growth at 10 µM
reported result: 75.9%
//
line notation: COc1ccc(/C=C2\CCCC3=C(c4ccc(OC)cc4)Nc4ccccc4N=C32)cc1
reported metric: inhibition of growth at 10 µM
reported result: < 30%
//
line notation: COc1ccc(/C=C2\CCCc3c2nc(N)nc3-c2ccc(OC)c(OC)c2)cc1OC
reported metric: inhibition of growth at 10 µM
reported result: < 30%
//
line notation: Nc1nc2c(c(-c3ccc(Cl)cc3)n1)CCC/C2=C\c1ccc(Cl)cc1
reported metric: inhibition of growth at 10 µM
reported result: < 30%
//
line notation: COc1cc(/C=C2\CCCc3c2nc(C)nc3-c2cc(OC)c(OC)c(OC)c2)cc(OC)c1OC
reported metric: inhibition of growth at 10 µM
reported result: 86.9%
//
line notation: COc1ccc(/C=C2\CCCc3c2nc(C)nc3-c2ccc(OC)c(OC)c2)cc1OC
reported metric: inhibition of growth at 10 µM
reported result: 92.9%
